- Method: Half life in human
- Assay type: ADME
Measured quantity: half-life (h)
Give bare numbers, in h.

INPUT: Tell me measured half-life for Cc1cc(C)cc([C@@H]2CCCN2Cc2ccc(Oc3ccc(C(N)=O)cc3F)cc2)c1 [ATICAPRANT] please.
OUTPUT: 21

###

- Tested target: Delta-type opioid receptor (Homo sapiens, UniProt P41143)
- Sequence (P41143 whole entry): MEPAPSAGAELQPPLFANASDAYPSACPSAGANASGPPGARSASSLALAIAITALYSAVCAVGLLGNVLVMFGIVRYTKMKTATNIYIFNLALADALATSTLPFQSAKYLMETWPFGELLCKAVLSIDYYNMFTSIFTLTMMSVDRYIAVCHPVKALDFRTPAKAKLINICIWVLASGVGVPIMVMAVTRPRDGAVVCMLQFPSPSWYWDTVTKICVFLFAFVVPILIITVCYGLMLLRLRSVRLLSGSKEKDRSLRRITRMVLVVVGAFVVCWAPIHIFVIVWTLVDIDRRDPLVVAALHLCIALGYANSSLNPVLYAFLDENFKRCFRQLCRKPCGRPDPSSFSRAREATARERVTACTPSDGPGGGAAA
- Method: Binding affinity to DOR (unknown origin) assessed as inhibition constant by ratio ligand binding assay
For each entry below, report its Ki value.
Answers are plain numbers, in nM.

CC(C)=CCN1CC[C@@]2(C)c3cc(O)ccc3CC1C2C (some centres undefined)    62
CCCCN(CCc1ccccc1)CCc1cccc(O)c1    2700
CC(C)=CCN1CC[C@]2(C)c3cc(O)ccc3C[C@H]1[C@H]2C [(+)-PENTAZOCINE]    62

Now, please, on to the next compound.
INPUT: Provide measured Ki value, entry: Cc1ccc(CSc2nnc(-c3ccccn3)n2Cc2ccco2)cc1C(F)(F)F
OUTPUT: 5350

###

- Tested target: Mu-type opioid receptor (Homo sapiens, UniProt P35372)
- Sequence (P35372 whole entry): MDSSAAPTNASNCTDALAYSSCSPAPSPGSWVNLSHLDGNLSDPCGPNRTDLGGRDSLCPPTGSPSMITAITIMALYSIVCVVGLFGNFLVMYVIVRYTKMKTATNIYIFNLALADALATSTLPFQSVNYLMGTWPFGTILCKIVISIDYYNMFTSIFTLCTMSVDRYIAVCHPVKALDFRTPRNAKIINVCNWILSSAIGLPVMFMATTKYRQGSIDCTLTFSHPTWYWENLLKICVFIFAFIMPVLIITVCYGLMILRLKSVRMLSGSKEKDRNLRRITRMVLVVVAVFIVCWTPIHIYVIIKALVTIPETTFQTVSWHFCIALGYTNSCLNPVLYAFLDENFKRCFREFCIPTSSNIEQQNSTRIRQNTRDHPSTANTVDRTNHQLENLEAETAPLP
- Method: Binding affinity to MOR (unknown origin) assessed as inhibition constant by radioligand binding assay
Measured quantity: pKi
One number for each entry, as −log10 of the molar value.

Illustrative cases are given below, each with its answer.
O=C(N[C@@H]1CC[C@@]2(O)[C@H]3Cc4ccc(O)c5c4[C@@]2(CCN3CC2CC2)[C@H]1O5)c1cc[n+](Cc2ccccc2)cc1    8.46
CCCCN(CCc1ccccc1)CCc1cccc(O)c1    6.44
Cc1ccc(CSc2nnc(-c3ccccn3)n2Cc2ccco2)cc1C(F)(F)F    5.72
O=C(N[C@@H]1C=C[C@H]2[C@H]3Cc4ccc(O)c5c4[C@@]2(CCN3CC2CC2)[C@H]1O5)c1cccc(I)c1    10.68
C[N+]1(CC2CC2)CC[C@]23c4c5ccc(O)c4O[C@H]2C(=O)CC[C@@]3(O)[C@H]1C5 (some centres not stated) [METHYLNALTREXONE]    8.00

Let us move to another entry and its pKi.
INPUT: Supply recorded pKi for COC(=O)[C@@H]1C[C@H](OC(=O)C2=Cc3ccccc3C2)C(=O)[C@H]2[C@@]1(C)CC[C@H]1C(=O)O[C@H](c3ccoc3)C[C@]21C here.
OUTPUT: 6.27

###

- Tested target: Kappa-type opioid receptor (Cavia porcellus, UniProt P41144)
- Sequence (P41144 whole entry): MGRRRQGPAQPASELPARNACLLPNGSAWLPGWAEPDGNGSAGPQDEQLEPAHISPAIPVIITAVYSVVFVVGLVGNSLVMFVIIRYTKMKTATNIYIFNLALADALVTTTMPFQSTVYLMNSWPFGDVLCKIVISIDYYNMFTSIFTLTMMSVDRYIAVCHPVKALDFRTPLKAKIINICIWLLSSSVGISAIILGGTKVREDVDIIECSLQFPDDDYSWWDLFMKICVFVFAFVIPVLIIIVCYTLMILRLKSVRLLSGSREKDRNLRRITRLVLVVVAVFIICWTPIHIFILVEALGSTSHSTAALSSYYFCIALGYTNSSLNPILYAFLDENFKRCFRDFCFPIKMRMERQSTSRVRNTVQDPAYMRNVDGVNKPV
- Method: Agonist activity at KOR in guinea pig brain membranes assessed as stimulation of [35S]GTPgammaS binding measured after 1 hr by liquid scintillation counting analysis
Measured quantity: Ki

INPUT: Report measured Ki; entry is O=C(O[C@@H]1[C@@H]2[C@H]3C[C@@H](C[C@H]2C(=O)O[C@H]1c1ccoc1)OC3=O)c1ccccc1
OUTPUT: > 5 µM

###

Please provide measured pKi for the entries that follow.
- Tested target: UniProt:P41145
- Sequence (P41145 whole entry): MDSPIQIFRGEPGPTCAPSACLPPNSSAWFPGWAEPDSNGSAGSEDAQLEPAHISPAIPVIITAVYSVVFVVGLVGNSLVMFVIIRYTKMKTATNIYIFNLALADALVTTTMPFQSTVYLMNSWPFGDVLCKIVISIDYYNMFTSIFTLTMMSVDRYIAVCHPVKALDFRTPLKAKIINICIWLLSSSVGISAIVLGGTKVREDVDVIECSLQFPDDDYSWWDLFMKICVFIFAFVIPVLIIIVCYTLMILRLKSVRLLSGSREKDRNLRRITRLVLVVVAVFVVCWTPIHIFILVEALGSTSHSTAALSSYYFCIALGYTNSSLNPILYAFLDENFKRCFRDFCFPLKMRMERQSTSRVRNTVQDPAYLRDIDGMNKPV
- Method: Binding affinity to KOR (unknown origin) assessed as inhibition constant
One number for each entry, as −log10 of the molar value.

CC(C)=CCN1CC[C@]2(C)c3cc(O)ccc3C[C@H]1[C@H]2C [(+)-PENTAZOCINE]    8.12
CCCC[C@@H](NC(=O)[C@@H](CC1=CC=CCC1)NC(=O)[C@H](N)Cc1ccccc1)C(=O)N[C@H](CCCNC(=N)N)C(=O)NCc1ccncc1    9.62

Would you mind listing pKi for each of the following compounds?
1. C#Cc1occc1[C@@H]1C[C@@]2(C)[C@@H](CC[C@@]3(C)[C@H](C(=O)OC)C[C@H](OC(C)=O)C(=O)[C@@]32C)C(=O)O1
2. O=C(N[C@@H]1CC[C@@]2(O)[C@H]3Cc4ccc(O)c5c4[C@@]2(CCN3CC2CC2)[C@H]1O5)c1cc[n+](Cc2ccccc2)cc1
3. CC(C)=CCN1CC[C@@]2(C)c3cc(O)ccc3CC1C2C (some centres undefined)
4. COC(=O)[C@@H]1C[C@H](OC(=O)C2=Cc3ccccc3C2)C(=O)[C@H]2[C@@]1(C)CC[C@H]1C(=O)O[C@H](c3ccoc3)C[C@]21C
5. CC(C)C[C@@H](NC(=O)[C@@H](Cc1ccccc1)NC(=O)[C@H](N)Cc1ccccc1)C(=O)N[C@H](CCCCN)C(=O)N1CCC(N)(C(=O)O)CC1
6. CC(C)C[C@@H](NC(=O)[C@@H](CC1=CC=CCC1)NC(=O)[C@H](N)Cc1ccccc1)C(=O)N[C@H](CCCN)C(=O)N1CCOCC1

OUTPUT:
8.60
8.46
8.12
7.30
9.49
10.10

###

- Tested target: UniProtKB P41145
- Method: Agonist activity at KOR (unknown origin) by measuring cAMP inhibition
- Assay type: functional
For each of the compounds below, state its pEC50.
Answers are plain numbers, as −log10 of the molar value.

The following compounds each have a reported value; give each one's pEC50.
1. CC(C)=CCN1CC[C@@]2(C)c3cc(O)ccc3CC1C2C (some centres undefined) [PENTAZOCINE]
2. C[N+]1(CC2CC2)CC[C@]23c4c5ccc(O)c4O[C@H]2C(=O)CC[C@@]3(O)[C@H]1C5 (some centres undefined) [METHYLNALTREXONE]

OUTPUT:
1. 7.40
2. 8.17

Return reported pEC50 values for all items listed beneath this line.
1. CC(C)=CCN1CC[C@]2(C)c3cc(O)ccc3C[C@H]1[C@H]2C [(+)-PENTAZOCINE]
2. COC(=O)[C@@H]1C[C@H](OC(=O)C2=Cc3ccccc3C2)C(=O)[C@H]2[C@@]1(C)CC[C@H]1C(=O)O[C@H](c3ccoc3)C[C@]21C

OUTPUT:
7.40
6.07

###

- Tested target: Delta-type opioid receptor (Homo sapiens)
- Method: Binding affinity to human DOR expressed in HEK293 cells assessed as inhibition constant by GTPgammaS assay
- Assay type: cell-based
Measured quantity: Ki (nM)
Numbers only, in nM.

INPUT: Fill in reported Ki for this entry: N=C(N)Nc1ccc2c3c([nH]c2c1)[C@@H]1Oc2c(O)ccc4c2[C@@]12CCN(CC1CC1)[C@H](C4)[C@]2(O)C3
OUTPUT: 81.8

###

I'd appreciate it if you could supply pKi values for the items below.
- Tested target: UniProt:P41145
- Method: Binding affinity to wild type human KOR assessed as inhibition constant
Numbers only, as −log10 of the molar value.

These recorded examples may help you get a feel for the data.
O=C(O[C@@H]1[C@@H]2[C@H]3C[C@@H](C[C@H]2C(=O)O[C@H]1c1ccoc1)OC3=O)c1ccccc1    8.05
CN1CC[C@]23c4c5ccc(O)c4O[C@H]2C(=O)CC[C@@]3(OCCCc2ccccc2)[C@H]1C5    9.52

From here, focus on the item given below.
INPUT: Query pKi for O=C(N[C@@H]1C=C[C@H]2[C@H]3Cc4ccc(O)c5c4[C@@]2(CCN3CC2CC2)[C@H]1O5)c1cccc(I)c1
OUTPUT: 11.22

###

- Method: Half life in C57BL/6 mouse brain at 20 mg/kg, ip by LC-MS/MS analysis
- Format: ADME, organism-based
Measured quantity: half-life (h)
One number for each entry, in h.

INPUT: Answer with the recorded half-life of COC(=O)[C@@H]1C[C@H](OC(C)=O)[C@H](O)[C@H]2[C@@]1(C)CC[C@H]1C(=O)O[C@H](c3ccoc3)C[C@]21C [1-ALPHA-HYDROXYSALVINORIN A] only.
OUTPUT: 3.75

###

Hi there, I'd appreciate the recorded Ki for every entry that follows.
- Tested target: Delta-type opioid receptor (Homo sapiens)
- Method: Binding affinity to human DOR assessed as inhibition constant
Give bare numbers, in nM.

Recorded Ki, per entry:
O=C(N[C@@H]1C=C[C@H]2[C@H]3Cc4ccc(O)c5c4[C@@]2(CCN3CC2CC2)[C@H]1O5)c1cccc(I)c1    0.08
C[C@H]1[C@H]2Cc3ccc(C(N)=O)cc3[C@@]1(C)CCN2CC1CC1    4.9

Now consider the entry below.
INPUT: Give Ki for the following compound: O=C(N[C@@H]1CC[C@@]2(O)[C@H]3Cc4ccc(O)c5c4[C@@]2(CCN3CC2CC2)[C@H]1O5)c1cc[n+](Cc2ccccc2)cc1
OUTPUT: 722

###

- Method: Half life in C57BL/6 mouse […] at 20 mg/kg, ip by LC-MS/MS analysis
- Format: ADME, organism-based
Measured quantity: half-life (h)
One number for each entry, in h.

INPUT: Hello, please tell me recorded half-life for this one: COC(=O)[C@@H]1C[C@H](OC(C)=O)[C@H](O)[C@H]2[C@@]1(C)CC[C@H]1C(=O)O[C@H](c3ccoc3)C[C@]21C [1-ALPHA-HYDROXYSALVINORIN A]
OUTPUT: 3.75

###

- Tested target: Kappa-type opioid receptor (Mus musculus)
- Sequence (P33534 whole entry): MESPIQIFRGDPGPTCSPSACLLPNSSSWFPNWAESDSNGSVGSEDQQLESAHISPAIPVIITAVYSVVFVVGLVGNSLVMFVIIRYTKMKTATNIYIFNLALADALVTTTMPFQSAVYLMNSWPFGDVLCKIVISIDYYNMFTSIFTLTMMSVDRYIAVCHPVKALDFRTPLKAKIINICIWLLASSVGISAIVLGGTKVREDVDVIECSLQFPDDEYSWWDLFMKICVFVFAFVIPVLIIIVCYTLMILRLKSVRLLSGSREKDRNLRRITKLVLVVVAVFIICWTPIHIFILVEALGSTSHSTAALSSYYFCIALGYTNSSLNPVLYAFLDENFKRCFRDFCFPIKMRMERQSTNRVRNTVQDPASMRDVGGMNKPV
- Method: Agonist activity at KOR in mouse vas deferens assessed as inhibition of electrically evoked vas deferens contraction
Measured quantity: IC50 (nM)
Numbers only, in nM.

INPUT: Entry COC(=O)N1CCN(C(=O)Cc2ccc(Cl)c(Cl)c2)C(CN2CCCC2)C1 (stereo unspecified) needs its IC50 filled in; supply it.
OUTPUT: 0.041

Values were extracted from ChEMBL document CHEMBL5360528.
